Target: T1, EsCas13d, nuclease-dead (Eubacterium siraeum, UniProt B0MS50, R295A;H300A;R849A;H854A)
T1 sequence: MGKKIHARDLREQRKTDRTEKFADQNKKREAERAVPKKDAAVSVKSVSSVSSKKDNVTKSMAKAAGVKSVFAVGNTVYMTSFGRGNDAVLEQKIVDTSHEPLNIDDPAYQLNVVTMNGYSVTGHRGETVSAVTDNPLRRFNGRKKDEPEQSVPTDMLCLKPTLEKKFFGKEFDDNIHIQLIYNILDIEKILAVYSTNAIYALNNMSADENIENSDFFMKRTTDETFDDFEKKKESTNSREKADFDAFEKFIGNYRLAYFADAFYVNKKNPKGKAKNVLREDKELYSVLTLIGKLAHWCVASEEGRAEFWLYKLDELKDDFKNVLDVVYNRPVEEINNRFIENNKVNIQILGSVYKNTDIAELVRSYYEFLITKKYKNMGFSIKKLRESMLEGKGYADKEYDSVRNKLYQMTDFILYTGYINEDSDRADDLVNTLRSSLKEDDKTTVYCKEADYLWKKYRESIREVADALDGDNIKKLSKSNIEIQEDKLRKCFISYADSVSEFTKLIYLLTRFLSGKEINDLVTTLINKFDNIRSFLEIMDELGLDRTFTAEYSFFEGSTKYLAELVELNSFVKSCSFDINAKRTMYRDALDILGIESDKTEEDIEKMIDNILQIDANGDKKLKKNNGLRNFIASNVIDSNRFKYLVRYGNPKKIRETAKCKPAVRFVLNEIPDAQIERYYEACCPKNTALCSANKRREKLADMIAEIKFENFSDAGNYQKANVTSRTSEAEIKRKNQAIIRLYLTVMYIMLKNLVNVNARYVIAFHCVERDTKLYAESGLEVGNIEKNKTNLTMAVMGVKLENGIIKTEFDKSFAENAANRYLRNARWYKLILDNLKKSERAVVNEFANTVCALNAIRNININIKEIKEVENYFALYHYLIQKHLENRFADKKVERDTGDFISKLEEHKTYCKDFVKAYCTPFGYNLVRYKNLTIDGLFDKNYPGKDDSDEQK
Test: crRNA (strand 1, pre-loaded); Mg2+; 40 mM Tris-HCl pH 7.5, 150 mM NaCl, 6 mM MgCl2, 1 mM DTT, 0.1% Tween-20, 0.2 mg/ml BSA; 25 C; 10 min per concentration, then washed
Conditions: tags: His6-TwinStrep-SUMO cleaved; N-terminal SNAP kept (SNAP-Surface 488); label: 3' end held by stalled T7 RNA polymerase
A collection of binders and their measured Kd
ATTRIBUTE MEASURED: Kd

* target 1 insA 3' of 17,insA 3' of 4 (mixed) RNA 1: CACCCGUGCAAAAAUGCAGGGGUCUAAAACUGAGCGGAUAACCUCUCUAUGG RNA 2: GGGAAUGGAUCCACAUCUACGAAUUCGUACCAUAGAAGAGGUUAUCCGCAUCACCGAGAUCGGAAGAGCACACGU | 10 nM
* target 2 MT 5'PFS GAG 3'PFS AUC (mixed) RNA 1: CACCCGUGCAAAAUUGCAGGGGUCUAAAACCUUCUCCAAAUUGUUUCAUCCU RNA 2: GGGAAUGGAUCCACAUCUACGAAUUCGAGAGGAUGAAACAAUUUGGAGAAGAUCAGAUCGGAAGAGCACACGU | 9.9 nM
* target 1 MT 5'PFS UCG 3'PFS CGU (mixed) RNA 1: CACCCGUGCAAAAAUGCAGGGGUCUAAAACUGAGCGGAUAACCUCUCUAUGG RNA 2: GGGAAUGGAUCCACAUCUACGAAUUCUCGCCAUAGAGAGGUUAUCCGCUCACGUAGAUCGGAAGAGCACACGU | ~100 nM

Cited source for all entries: paper PMC10786891
